These data points were gathered from patent US7420051B2.

- Tested on: A-549 (monolayer culture of a human lung carcinoma)
- protocolText: Cytotoxic activity screening, A-549 cells
- Assay type: cell-based
- conditions: three days of incubation, Crystal Violet, approximate IC50
endpointName: IC50 (µM)
Answers are plain numbers, in µM.

IN: I'd like to know its IC50. The compound in question is C=CCOc1c(C)c2c(c3c1CC1[C@H]4c5c(cc(C)c(OC)c5OCOC)C[C@@H]([C@H](C#N)N1[C@H]3CN)N4C)OCO2 (stereo partly shown) [drawing 81]
OUT: 0.2

---

- System: CV-1
- protocolText: Cytotoxic activity screening, CV-1 cells
- Assay type: cell-based
- conditions: Cercopithecidae
For each record, write down the corresponding IC50.
Give bare numbers, in µM.

compound	unitOfMeasurement	IC50
COC1=C(C)C(=O)C2=C(C1=O)[C@H](CNC(=O)C(C)N)N1C(C2)[C@H]2c3c(cc(C)c(OC)c3O)C[C@@H]([C@@H]1C#N)N2C (some centres unmarked)	µM	0.023

Please look at the items below and tell me IC50 for each one, in order.
1. COC1=C(C)C(=O)C2=C(C1=O)[C@H](CNC(=O)C(C)N=CSNc1ccccc1)N1C(C2)[C@H]2c3c(cc(C)c(OC)c3O)C[C@@H]([C@@H]1C#N)N2C (some centres unmarked)
2. C=CCOc1c(C)c2c(c3c1CC1[C@H]4c5c(cc(C)c(OC)c5OCOC)C[C@@H]([C@H](C#N)N1[C@H]3CNC(=O)OCC(Cl)(Cl)Cl)N4C)OCO2 (some centres unmarked)
3. C=CCOc1c(C)c2c(c3c1CC1[C@H]4c5c(cc(C)c(OC)c5OCOC)C[C@@H]([C@H](C#N)N1[C@H]3CN)N4C)OCO2 (some centres unmarked) [drawing 80]
4. COCOc1c(OC)c(C)cc2c1[C@@H]1C3CC4=C(C(=O)C(OC)=C(C)C4=O)[C@H](CNC(C)=O)N3[C@@H](C#N)[C@H](C2)N1C (some centres unmarked)
5. C=CCOc1c(C)c2c(c3c1CC1[C@H]4c5c(cc(C)c(OC)c5O)C[C@@H]([C@H](C#N)N1[C@H]3CNC(=O)OCC(Cl)(Cl)Cl)N4C)OCO2 (some centres unmarked)
6. COc1c(C)cc2c(c1O)[C@@H]1C3Cc4c(O)c(C)c5c(c4[C@H](CN4C(=O)c6ccccc6C4=O)N3[C@@H](C#N)[C@H](C2)N1C)OCO5 (some centres unmarked)

OUT:
1. 0.018
2. 0.13
3. 1.8
4. 0.22
5. 0.014
6. 0.001
